Tested on: L1210
RUN DESCRIPTION: Ability to inhibit [3H]SPD transport by L1210 cells
Format: functional, cell-based, Mus musculus
RESULT TYPE: Ki (µM)
Could you give me the number in µM? Just the number is fine.

Entry CCNCCCNCCC(N)CNCCCNCC (stereo unspecified) ; Ki = 33.7

----------
Tested on: L1210
RUN DESCRIPTION: Inhibitory activity against L1210 cell growth for 96h
Assay type: functional, cell-based
TEST SETTINGS: Mus musculus, L1210, 96 h
RESULT TYPE: pIC50
pIC50 field: float, defined as -log10 of concentration (mol/L).

Entry CCNCCCNCCC(N)CNCCCNCC (configuration not stated) ; pIC50 = 6.40
